- Tested on: HL-1
- ASSAY OVERVIEW: relative cell viability (CellTiter-Glo) vs DMSO control (% of DMSO control); higher = more viable cells
- SETTINGS: oxygen condition: normoxia 72 h; 1000 nM
Structures can show the parent of a compound that is named as a salt.
The reader will find reported relative cell viability values listed item by item below.
Respond numerically, and do not add a unit to the figure.

Known results for compounds:
• CC(=O)OCC(=O)[C@H]1CC[C@H]2[C@@H]3CCC4=CC(=O)CC[C@]4(C)[C@H]3CC[C@]12C [Deoxycorticosterone acetate] = 102
• C=C1/C(=C\C=C2/CCC[C@]3(C)[C@@H]([C@H](C)/C=C/[C@H](C)C(C)C)CC[C@@H]23)C[C@@H](O)C[C@@H]1O = 103
• CCC[C@@H]1C[C@@H](C(=O)N[C@@H]([C@H]2O[C@H](SC)[C@H](O)[C@@H](O)[C@H]2O)[C@@H](C)O)N(C)C1 [Lincomycin hydrochloride] = 100
• OCCN(CCO)c1nc(N2CCCCC2)c2nc(N(CCO)CCO)nc(N3CCCCC3)c2n1 = 98
• CNC[C@H](O)c1ccc(O)c(O)c1 [Epinephrine bitartrate] = 98.4

Exercise: relative cell viability for CN1CCN(CCCN2c3ccccc3Sc3ccc(Cl)cc32)CC1 [Prochlorperazine Dimaleate] ?
Key: 102

Exercise: Input CCCCC1=NC2(CCCC2)C(=O)N1Cc1ccc(-c2ccccc2-c2nnn[nH]2)cc1
Key: 102

Exercise: Input CCCCOc1ccc(OCCCN2CCOCC2)cc1 [Pramoxine HCl]
Key: 97.5

Exercise: Input CC(=O)Nc1ccccc1 [Acetanilide]
Key: 98

---

The reader will find reported relative cell viability values listed item by item below.
- System: HL-1
- ASSAY OVERVIEW: relative cell viability (CellTiter-Glo) vs DMSO control (% of DMSO control); higher = more viable cells
- SETTINGS: oxygen condition: hypoxia 48 h (1% O2) + reoxygenation 24 h; 40 nM
Structures can show the parent of a compound that is named as a salt.
Respond numerically, and do not add a unit to the figure.

* Cc1ccc(C(=O)c2cc(O)c(O)c([N+](=O)[O-])c2)cc1 | 101
* CS(=O)(=O)CCNCc1ccc(-c2ccc3ncnc(Nc4ccc(OCc5cccc(F)c5)c(Cl)c4)c3c2)o1 [Lapatinib] | 101
* CN(Cc1ccc(C(C)(C)C)cc1)Cc1cccc2ccccc12 [Butenafine HCl] | 98.1
* CC1CCc2c(N3CCC(O)CC3)c(F)cc3c(=O)c(C(=O)O)cn1c23 (stereo not given) | 103

Turning now to a further molecule:
Exercise: relative cell viability for CC(C)OC(=O)C(C)(C)Oc1ccc(C(=O)c2ccc(Cl)cc2)cc1 [Fenofibrate] ?
Key: 103

---

- Test system: HL-1
- ASSAY OVERVIEW: relative cell viability (CellTiter-Glo) vs DMSO control (% of DMSO control); higher = more viable cells
- SETTINGS: oxygen condition: normoxia 72 h; 40 nM
Counter-ions that a name gives are not always drawn.
METRIC: relative cell viability
Respond numerically, and do not add a unit to the figure.

* CCN(CC)CC(=O)Nc1c(C)cccc1C [Lidocaine] | 112
* CCCC(=O)Nc1ccc(OCC(O)CNC(C)C)c(C(C)=O)c1 (centres undefined) [Acebutolol HCl] | 104
* CNC(=O)c1cc(Oc2ccc(NC(=O)Nc3ccc(Cl)c(C(F)(F)F)c3)c(F)c2)ccn1 [Regorafenib] | 110
* COC(=O)C1=C(C#N)NC(C)=C(C(=O)OC(C)C)C1c1cccc([N+](=O)[O-])c1 (centres undefined) [Nilvadipine] | 98.3
* Cc1ccccc1C(=O)Nc1ccc(C(=O)N2CCCC(O)c3cc(Cl)ccc32)c(C)c1 (centres undefined) [Tolvaptan] | 96.7
* Nc1nc2[nH]cnc2c(=S)[nH]1 [Thioguanine] | 82.9
* CN1CCN(CCCN2c3ccccc3Sc3ccc(Cl)cc32)CC1 [Prochlorperazine Dimaleate] | 98.7
* S=c1[nH]cnc2nc[nH]c12 [Mercaptopurine] | 103

Exercise: relative cell viability for CC[C@]1(O)C[C@H]2CN(CCc3c([nH]c4ccccc34)[C@@](C(=O)OC)(c3cc4c(cc3OC)N(C=O)[C@H]3[C@@](O)(C(=O)OC)[C@H](OC(C)=O)[C@]5(CC)C=CCN6CC[C@]43[C@@H]65)C2)C1 [Vincristine] ?
Key: 32.5

---

- Test system: HL-1
- ASSAY OVERVIEW: relative cell viability (CellTiter-Glo) vs DMSO control (% of DMSO control); higher = more viable cells
- SETTINGS: oxygen condition: normoxia 72 h; 200 nM
Structures can show the parent of a compound that is named as a salt.
METRIC: relative cell viability
Respond numerically, and do not add a unit to the figure.

* CCCCCCNC(=O)n1cc(F)c(=O)[nH]c1=O | 81.2
* COC(=O)C1=C(C#N)NC(C)=C(C(=O)OC(C)C)C1c1cccc([N+](=O)[O-])c1 (stereo not given) | 98.1
* COc1ccc(C2C(=O)c3ccccc3C2=O)cc1 | 78.2
* O=C(O)c1cc(=O)c2ccccc2o1 | 103

Exercise: relative cell viability for COCCCC/C(=N\OCCN)c1ccc(C(F)(F)F)cc1 [Fluvoxamine maleate] ?
Key: 98.3

---

- Tested on: HL-1
- ASSAY OVERVIEW: relative cell viability (CellTiter-Glo) vs DMSO control (% of DMSO control); higher = more viable cells
- SETTINGS: oxygen condition: normoxia 72 h; 5000 nM
Structures can show the parent of a compound that is named as a salt.
Returns: string. Value is YES if measured relative cell viability is below 100, and NO if it is greater than or equal to it.

* CC(=O)OCC(=O)NCCCOc1cccc(CN2CCCCC2)c1 [Roxatidine acetate HCl] | NO
* CCOC(=O)C1=C(C)NC(C)=C(C(=O)OC)C1c1cccc([N+](=O)[O-])c1 (configuration not stated) | NO
* CO[C@H]1O[C@@H]2O[C@@]3(C)CC[C@H]4[C@H](C)CC[C@@H]([C@H]1C)[C@@]24OO3 | YES
* CCN1CC(CCN2CCOCC2)C(c2ccccc2)(c2ccccc2)C1=O (configuration not stated) [Doxapram HCl] | NO
* O=NN(CCCl)C(=O)NC1CCCCC1 | YES

Exercise: # strict comparison: is reported relative cell viability < 100? input = N[C@@H](Cc1cc(I)c(Oc2cc(I)c(O)c(I)c2)c(I)c1)C(=O)O
Key: NO

Exercise: Input CN(CCOc1ccc(CC2SC(=O)NC2=O)cc1)c1ccccn1 (configuration not stated) [Rosiglitazone]
Key: NO

---

The reader will find reported relative cell viability values listed item by item below.
- Tested on: HL-1
- ASSAY OVERVIEW: relative cell viability (CellTiter-Glo) vs DMSO control (% of DMSO control); higher = more viable cells
- SETTINGS: oxygen condition: normoxia 72 h; 40 nM
Structures can show the parent of a compound that is named as a salt.
Respond numerically, and do not add a unit to the figure.

Known results for molecules:
* CNC(=O)CN(CCN(CCN(CC(=O)[O-])CC(=O)NC)CC(=O)[O-])CC(=O)[O-].[Gd+3] [Gadodiamide] | 103
* Cc1ccc(Nc2nccc(N(C)c3ccc4c(C)n(C)nc4c3)n2)cc1S(N)(=O)=O [Pazopanib HCl] | 103
* Cc1ccc(C)c(OCCCC(C)(C)C(=O)O)c1 | 102

Turning now to a further molecule:
Exercise: relative cell viability for CCCN[C@H]1CCc2nc(N)sc2C1 [Pramipexole dihydrochloride monohydrate] ?
Key: 99

---

- Tested on: HL-1
- ASSAY OVERVIEW: relative cell viability (CellTiter-Glo) vs DMSO control (% of DMSO control); higher = more viable cells
- SETTINGS: oxygen condition: normoxia 72 h; 1000 nM
METRIC: relative cell viability
Respond numerically, and do not add a unit to the figure.

Known results for molecules:
* CCC(=O)NCC[C@@H]1CCc2ccc3c(c21)CCO3 [Ramelteon] | 118
* CC1=C(/C=C/C(C)=C/C=C/C(C)=C/C(=O)O)C(C)(C)CCC1 [Tretinoin] | 101

Turning now to a further molecule:
Exercise: relative cell viability for NC[C@H]1CC[C@H](C(=O)O)CC1 [Tranexamic acid] ?
Key: 102

---

- Test system: HL-1
- ASSAY OVERVIEW: relative cell viability (CellTiter-Glo) vs DMSO control (% of DMSO control); higher = more viable cells
- SETTINGS: oxygen condition: normoxia 72 h; 200 nM
Counter-ions that a name gives are not always drawn.
METRIC: relative cell viability
Respond numerically, and do not add a unit to the figure.

Known results for compounds:
- OC1(c2ccc(Cl)c(C(F)(F)F)c2)CCN(CCCC(c2ccc(F)cc2)c2ccc(F)cc2)CC1 [Penfluridol]: 100
- CNS(=O)(=O)Cc1ccc2[nH]cc(CCN(C)C)c2c1 [Sumatriptan succinate]: 100
- CC(C)(Sc1cc(C(C)(C)C)c(O)c(C(C)(C)C)c1)Sc1cc(C(C)(C)C)c(O)c(C(C)(C)C)c1 [Probucol]: 103

Turning now to a further compound:
Exercise: relative cell viability for CSc1ccc2c(c1)N(CCC1CCCCN1C)c1ccccc1S2 (centres undefined) [Thioridazine HCl] ?
Key: 101
